# Target: full-length beta-Catenin (Uniprot ID P35222) (Homo sapiens (Human)) (UniProt P35222)
# Sequence (P35222 2-781 limits assumed): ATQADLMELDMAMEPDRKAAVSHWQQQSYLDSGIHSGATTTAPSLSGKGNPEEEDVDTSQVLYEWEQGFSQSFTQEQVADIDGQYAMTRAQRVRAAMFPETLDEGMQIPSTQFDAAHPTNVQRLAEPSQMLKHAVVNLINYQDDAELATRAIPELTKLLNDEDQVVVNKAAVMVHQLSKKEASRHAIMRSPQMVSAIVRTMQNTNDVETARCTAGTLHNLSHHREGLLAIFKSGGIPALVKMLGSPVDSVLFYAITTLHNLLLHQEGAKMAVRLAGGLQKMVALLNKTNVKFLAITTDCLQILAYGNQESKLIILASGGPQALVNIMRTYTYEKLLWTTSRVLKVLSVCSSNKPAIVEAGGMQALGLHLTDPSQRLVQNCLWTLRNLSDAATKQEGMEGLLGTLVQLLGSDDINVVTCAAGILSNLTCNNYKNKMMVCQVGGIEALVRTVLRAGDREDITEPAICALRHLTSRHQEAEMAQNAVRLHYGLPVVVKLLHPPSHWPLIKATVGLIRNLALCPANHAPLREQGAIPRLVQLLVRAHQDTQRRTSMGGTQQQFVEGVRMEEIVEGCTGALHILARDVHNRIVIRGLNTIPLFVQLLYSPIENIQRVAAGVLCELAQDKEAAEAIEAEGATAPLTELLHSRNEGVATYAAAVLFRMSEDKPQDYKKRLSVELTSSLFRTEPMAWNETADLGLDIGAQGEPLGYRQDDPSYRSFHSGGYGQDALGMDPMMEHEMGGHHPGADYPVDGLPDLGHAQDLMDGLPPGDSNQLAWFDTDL
# Procedure details: fluorescence polarization competition; 10 nM full-length beta-catenin + 10 nM 5FAM-TCF4 10-53 as competitor probe
Starred links: 1 amine or outer side, 2 acyl side, 3 side chain; linkers in the order of their positions; H or OH if unused. Positions of bridges follow the written chain, without caps; N, C: chain ends. Non-standard residues stand in square brackets, D forms with d. Primed or numbered codes have the meaning given here. PyrS2″ = (S)-3-amino-1-((pent-4-en-1-yloxy)carbonyl)pyrrolidine-3-carboxylic acid (stapling residue), C=CCCCOC(=O)N1CC[C@@](N[*:1])(C(=O)[*:2])C1; B5(5) = 2,2-bis(4-pentenyl)glycine, 2-amino-2-(pent-4-en-1-yl)hept-6-enoic acid (stitching residue), C=CCCCC(CCCC=C)(N[*:1])C(=O)[*:2]; PyrS2 = (S)-3-amino-1-((pent-4-en-1-yloxy)carbonyl)pyrrolidine-3-carboxylic acid, C=CCCCOC(=O)N1CC[C@@](N[*:1])(C(=O)[*:2])C1; Phe(2-Cl) = N[C@@H](Cc1ccccc1Cl)C(=O)O; Phe(2-F) = N[C@@H](Cc1ccccc1F)C(=O)O; Bta = N[C@@H](Cc1csc2ccccc12)C(=O)O; αAllylPro = C=CC[C@@]1(C(=O)O)CCCN1; tBuAla = CC(C)(C)C[C@H](N)C(=O)O; Cha = N[C@@H](CC1CCCCC1)C(=O)O
Parameter measured: log10 EC50 (log10 of the value in nM)

• Ac-[αAllylPro]D[tBuAla][B5(5)]DDAAFS[PyrS2″][Phe(2-Cl)][Bta][dT]-NH2 (staple 1-4, 4-11) [I-1032] = 1.18
• Ac-[αAllylPro]D[Cha][B5(5)]DDAAFS[PyrS2][Phe(2-Cl)][Bta]S-NH2 (staple 1-4, 4-11) [I-1050] = 0.70
• Ac-[αAllylPro]E[tBuAla][B5(5)]DDAAFN[PyrS2″][Phe(2-Cl)][Bta][dT]-NH2 (staple 1-4, 4-11) [I-1029] = 2.92
• Ac-[αAllylPro]D[tBuAla][B5(5)]DNAAFT[PyrS2″][Phe(2-F)][Bta]S-NH2 (staple 1-4, 4-11) [I-1024] = 1.63
• Ac-[αAllylPro]D[tBuAla][B5(5)]DDAAFT[PyrS2″][Phe(2-Cl)][Bta][dT]-NH2 (staple 1-4, 4-11) [I-1033] = 1.00
• Ac-[αAllylPro]D[Cha][B5(5)]DDAAFN[PyrS2″][Phe(2-Cl)][Bta]S-NH2 (staple 1-4, 4-11) [I-1046] = 0.70
